All values here come from ChEMBL document CHEMBL1126594.

experiment_description: Partition coefficient (logD7.4)
condition: octanol/water, pH 7.4
Documented logD across a set of compounds
Give a plain numeric answer without units written out.

CCN1C[C@@H]([C@H](O)[C@H](CC2CCCCC2)NC(=O)[C@H](Cc2cscn2)NC(=O)[C@@H](CC(=O)N2CCOCC2)Cc2ccccc2)OC1=O: 2.83
COc1ccc(C[C@H](NC(=O)C2CCN(C)CC2)C(=O)N[C@@H](Cc2cscn2)C(=O)N[C@@H](CC2CCCCC2)[C@@H](O)[C@@H](O)CC(C)C)cc1: 3.03

The reported value for CC(C)C[C@H](O)[C@H](O)[C@H](CC1CCCCC1)NC(=O)[C@H](Cc1cscn1)NC(=O)[C@@H](CC(=O)CN1CCOCC1)Cc1ccccc1 in terms of logD is 3.91

The reported value for CC(C)C[C@H](O)[C@H](O)[C@H](CC1CCCCC1)NC(=O)[C@H](Cc1ccn[nH]1)NC(=O)[C@@H](CC(=O)N1CCN(C)CC1)Cc1ccccc1 in terms of logD is 4.02
